Test system: OVCAR-4 ovarian
Assay: NCI-60 one-dose screen, 48 h
Settings: 10 µM unless noted
About 83,000 compounds went through this panel and 20% of them were active in at least one assay; those are over-represented in the sample as a whole. The source made the active and inactive calls. How the source made its calls: active means growth percent below 10; inactive means the rest.
Assign a class; possible classes are true (active), false (inactive)

Incoming: Test call for this compound, please: `Nc1c(Cl)c(Cl)nc(C(=O)O)c1Cl`
Outgoing: false

Incoming: What was the test verdict on `N[C@@H](CCC(=O)CCl)C(=O)O` ?
Outgoing: false

Incoming: Dear colleague, could you share the recorded outcome for `C=CC[PH+](c1ccccc1)c1ccccc1.C=CC[PH+](c1ccccc1)c1ccccc1.[Pt+2].[S-]c1nc2ccccc2[nH]1.[S-]c1nc2ccccc2[nH]1` when you have a moment?
Outgoing: true

Incoming: Dear colleague, could you share the recorded outcome for `CCOP(=O)(OCC)C(=O)N(CC)CC` when you have a moment?
Outgoing: false

Incoming: Assay result, entry `C[C@]12CC[C@H]3[C@@H](CC=C4c5nc(-c6ccc(Br)cc6)sc5CC[C@@]43C)[C@@H]1CC[C@@H]2O` — outcome?
Outgoing: false

Could you now consider this next compound?
Incoming: Returns: the outcome recorded for O=C(O)C(Br)CBr (stereo unspecified) in this assay.
Outgoing: false

###

System: SF-295 CNS
Test: NCI-60 one-dose screen, 48 h (100 = growth as untreated, 0 = no growth, -100 = all killed)
Details: 10 µM unless noted
About 83,000 compounds went through this panel and 20% of them were active in at least one assay; those are over-represented in the sample as a whole.
measuredMetric: growth (%)
Numbers only; they are read as %.

Examples with their reported growth follow.
Incoming: // lookup growth for `C/C(=C\c1ccn(-c2ccc(N)c(C(F)(F)F)c2)n1)[C@@H]1C[C@@H]2O[C@]2(C)CCC[C@H](C)[C@H](O)[C@@H](C)C(=O)C(C)(C)[C@@H](O)CC(=O)O1`
Outgoing: 15.1

Incoming: Item `CC1(C)CN=C(NN=C(/C=C/c2ccc(C(F)(F)F)cc2)/C=C/c2ccc(C(F)(F)F)cc2)NC1` has what recorded growth?
Outgoing: -70.8

Incoming: Quick check: growth of `N#Cc1ccc(Cl)cc1` ?
Outgoing: 113

Incoming: Please look up its growth: COCC1OC2OC3C(COC)OC(OC4C(COC)OC(OC5C(COC)OC(OC6C(COC)OC(OC7C(COC)OC(OC8C(COC)OC(OC1C(O)C2O)C(O)C8O)C(O)C7O)C(O)C6O)C(O)C5O)C(O)C4O)C(O)C3O (configuration not stated) (tested in a mixture with another compound)
Outgoing: 111

Incoming: I have this molecule here, `c1ccc(CCN2CCCCC2)nc1` , and I need its recorded growth.
Outgoing: 98

Incoming: # query: growth of entry ClC1OC(Cl)(Cl)C(Cl)(Cl)OC1(Cl)Cl (configuration not stated)
Outgoing: 109

# ---- query molecule ----
Incoming: What value of growth has been recorded for this entry: `CC(=O)Nc1nc2c(s1)C1=CC[C@H]3[C@@H]4CC[C@H](OC(C)=O)[C@@]4(C)CC[C@@H]3[C@@]1(C)CC2`
Outgoing: 29.4

###

Recorded growth, one value per entry.
Test system: OVCAR-3 ovarian
Assay: NCI-60 one-dose screen, 48 h (100 = growth as untreated, 0 = no growth, -100 = all killed)
Conditions: 10 µM unless noted
This is part of a sample that, as a whole, favours compounds with a hit. Of some 83,000 tested, about 20% had one in any assay. Active and inactive are the calls of the source. The calls were made as follows: active = growth percent below 10; inactive = the rest.

Example cases with answers are listed next.
Incoming: May I ask what growth has been recorded for `CO[C@@H]([CH2][Hg][O]C(=O)c1ccccc1)[C@@H]([CH2][Hg][O]C(=O)c1ccccc1)OC` ?
Outgoing: -92.8% (active)

Incoming: So what's the measured growth for this one? `Cc1ccc(S(=O)(=O)n2cc([C@@]3(O)C[C@H](CSC#N)OC3=O)c3ccccc32)cc1`
Outgoing: 54.8% (inactive)

Incoming: Which growth is reported for this molecule? `COC(=O)CCP(CCC(=O)OC)c1ccccc1`
Outgoing: 107% (inactive)

Incoming: Suppose we examine the molecule `CCCCOC(N)=O` ; what growth value has been reported?
Outgoing: 109% (inactive)

***
Incoming: Which growth is reported for this molecule? `CN(C)c1ccc(C=C2C(=O)NC(=O)NC2=O)cc1`
Outgoing: 95.8% (inactive)

Incoming: What value of growth has been reported for the following molecule? C=C1C(=O)OC2CC3(C)OC3C3OC3C3=CC(OC3=O)C12 (stereo not given)
Outgoing: 41.8% (inactive)

Incoming: // growth lookup, key: COCC1OC2OC3C(COC)OC(OC4C(COC)OC(OC5C(COC)OC(OC6C(COC)OC(OC7C(COC)OC(OC8C(COC)OC(OC1C(O)C2O)C(O)C8O)C(O)C7O)C(O)C6O)C(O)C5O)C(O)C4O)C(O)C3O (stereo not given) (tested in a mixture with another compound)
Outgoing: 119% (inactive)

Incoming: Given the molecule COc1c(O)cc2c(c1OC)-c1ccc(SC)c(=O)cc1C(NC(C)=O)CC2 (stereo not given) , what is its reported growth?
Outgoing: -34.3% (active)

Incoming: Consider the molecule `CC(C)COC(=O)Cc1ccccc1` and give its measured growth.
Outgoing: 111% (inactive)

Incoming: State the recorded growth for this entry: `C/C(=C\c1ccn(-c2ccc(N)cc2F)n1)[C@@H]1C[C@@H]2O[C@]2(C)CCC[C@H](C)[C@H](O)[C@@H](C)C(=O)C(C)(C)[C@@H](O)CC(=O)O1`
Outgoing: -4.43% (active)

Incoming: What does the record list as growth for `C[C@]12CCc3sc(Nc4ccc(F)cc4F)nc3C1=CC[C@@H]1[C@@H]2CC[C@]2(C)C(=O)CC[C@@H]12` ?
Outgoing: -4.15% (active)

Incoming: I have this molecule here, `Cc1c(C)c(N)c(C)c(C)c1N` , and I need its recorded growth.
Outgoing: 115% (inactive)

Incoming: Quick check: growth of O=P1(N(CCCl)CCCl)NCCCO1 (stereo not given) ?
Outgoing: 121% (inactive)

Incoming: Given the entry `C[N+]1(CC#CC[N+]2(C)CCCC2)CCCC1` , report its measured growth.
Outgoing: 102% (inactive)

Incoming: Entry `CNC(=O)CCl` has what growth?
Outgoing: 113% (inactive)

Incoming: Item `O=C(O)c1ccccc1N(CCO)CCCl` has what recorded growth?
Outgoing: 111% (inactive)

Incoming: Endpoint output: growth of `O=[N+]([O-])c1cc(Cl)c(Cl)cc1Cl` . Value?
Outgoing: 119% (inactive)

Incoming: // lookup growth for `COc1ccc(N(CC(=O)NCCC[Te]c2ccccc2)C(=O)c2ccccc2)cc1`
Outgoing: 95.9% (inactive)

Incoming: So what's the measured growth for this one? `CC[C@H](CC[C@@H](C)[C@H]1CC[C@H]2[C@@H]3CC[C@H]4C[C@]5(CC[C@]4(C)[C@H]3CC[C@]12C)OO[C@](C)(C(F)(F)F)O5)C(C)C`
Outgoing: 93.2% (inactive)

Incoming: Which measured growth value corresponds to `CC1=CC(=Nc2ccc(N(CCCl)CCCl)cc2)C=C(C)C1=O` ?
Outgoing: -62.5% (active)

Incoming: Look at this molecule and give its reported growth. `C#COc1cccc(Nc2ncnc3cc(NC(=O)CF)ccc23)c1`
Outgoing: 12% [6.25 µM] (inactive)

Incoming: Requested read-out: growth. Entry: COc1ccc2c(c1)C1(C)CCN(C)CC(C1)C2O (stereo not given)
Outgoing: 109% (inactive)

Incoming: Please look up its growth: `CC[C@H](C)[C@H](NC(=O)[C@H]1CCCCN1C)C(=O)N(C)[C@H](C[C@@H](OC(C)=O)c1nc(C(=O)N[C@@H](Cc2ccccc2)C[C@H](C)C(=O)O)cs1)C(C)C`
Outgoing: -4.44% (active)

Incoming: So what does the record say about growth for `CC1(C)CN=C(NN=C(/C=C/c2ccc(C(F)(F)F)cc2)/C=C/c2ccc(C(F)(F)F)cc2)NC1` ?
Outgoing: -88% (active)

###

Tested on: DU-145 prostate
Assay: NCI-60 one-dose screen, 48 h (100 = growth as untreated, 0 = no growth, -100 = all killed)
Conditions: 10 µM unless noted
This is part of a sample that, as a whole, favours compounds with a hit. Of some 83,000 tested, about 20% had one in any assay.
measuredMetric: growth (%)
The reply should be a number in %, with the unit left off.

Incoming: Give recorded growth with DU-145 prostate for the following molecule: `O=C(NC(Cl)=C(Cl)Cl)P(=O)(c1ccccc1)c1ccccc1`
Outgoing: 118

Incoming: What value of growth on DU-145 prostate does CC12CCC3C4CCC(=O)C=C4CCC3C1CC1CC(=O)OC12 (configuration not stated) have?
Outgoing: 112

Incoming: Short answer please: growth, DU-145 prostate, entry `CCC1(CCSC#N)C(=O)NC(=O)NC1=O`
Outgoing: 106

Incoming: Can you look up growth on DU-145 prostate for `[N-]=[N+]=CC(=O)CCC(=O)C=[N+]=[N-]` ?
Outgoing: 127

Incoming: DU-145 prostate / growth / CN1CCC2(CC1)C(C#N)C(=O)NC(=O)C2C#N (configuration not stated) : value?
Outgoing: 112

Incoming: Value wanted: growth (DU-145 prostate) of entry `Cc1cc(N)ccc1N`
Outgoing: 115

Incoming: Fill in the recorded growth for this molecule, with DU-145 prostate as test system: `CCCCn1c(=O)c(C(=O)NCc2ccccc2Cl)c(O)c2ccccc21`
Outgoing: 84.6

Incoming: Value wanted: growth (DU-145 prostate) of entry `C=CC[PH+](c1ccccc1)c1ccccc1.C=CC[PH+](c1ccccc1)c1ccccc1.[Pt+2].[S-]c1ncccn1.[S-]c1ncccn1`
Outgoing: 35.5

***
Incoming: Return growth measured with DU-145 prostate given this molecule: `Cn1cc(-c2csc(-c3cn(CCCCN4CCOCC4)c4ccc(F)cc34)n2)c2cccnc21`
Outgoing: 100

Incoming: Report growth for `C[C@]12CCc3sc(Nc4ccc(F)cc4F)nc3C1=CC[C@@H]1[C@@H]2CC[C@]2(C)C(=O)CC[C@@H]12` tested on DU-145 prostate.
Outgoing: 24

Incoming: Quick check: growth on DU-145 prostate, item `Nc1ccc2c(c1)Cc1cc(N)ccc1-2` ?
Outgoing: 107

Incoming: // map `CO[C@@H]([CH2][Hg][O]C(=O)c1ccccc1)[C@@H]([CH2][Hg][O]C(=O)c1ccccc1)OC` to recorded growth (system: DU-145 prostate)
Outgoing: 91.4
